compounds and their reported log10 of IC50
# Assay Name: Cytotoxicity against mouse EL-4.IL-2 cells after 3 to 4 days by Trypan blue exclusion test
# Assay type: functional, cell-based
Value Type: log10 of IC50 (log10 of the value in µg/mL)

- Compound: "O=C1C[C@H]2S[C@H]3C[C@]2(C=C1Br)C1=C(N3)C(=O)c2[nH]cc3c2C1=NCC3"
  log10 of IC50: 0.68
- Compound: "[C-]#[N+][C@@]12CCC(=C)[C@H]3[C@H](CC(C)(C)NC=O)C[C@H](C)[C@@H](CC[C@@H]1C)[C@@H]32"
  log10 of IC50: 0.46
- Compound: "CCCCCCCCCCCCCCCC[C@@]1(OC)C=C[C@@H](CC(=O)OC)OO1"
  log10 of IC50: -0.40
- Compound: "CO[C@H]([C@H](C)/C=C/N(C)C=O)[C@@H](C)C(=O)CC[C@H](C)[C@H](C[C@@H]1OC(=O)C[C@@H](OC(N)=O)C[C@H](C)C[C@H](O)[C@H](C)[C@@H](OC)c2coc(n2)-c2coc(n2)-c2coc(n2)/C=C/C[C@H](OC)[C@H]1C)OC [KABIRAMIDE C]"
  log10 of IC50: -0.52
- Compound: "C1=C\\CCCCN(CCc2nccc3c2[nH]c2ccccc23)CCCC/1"
  log10 of IC50: 1.08
- Compound: "O=C1c2nccc(O)c2-c2nc3ccccc3c3ccnc1c23"
  log10 of IC50: 0.94
- Compound: "CSc1c2c3c(n1C)C(=O)C(=O)C(Cl)=C3NCC2"
  log10 of IC50: 1.36
- Compound: "C[C@H]1CC[C@H]2C(C)(C)CCC[C@]23Oc2ccc(O)cc2C[C@]13C"
  log10 of IC50: 1.00
- Compound: "C/C1=C/C(=O)O[C@@H]2C[C@@H](CC[C@H](C)/C=C\\C=C\\CC1)O[C@@](O)([C@@H]1CSC(=O)N1)C2"
  log10 of IC50: -1.00
- Compound: "Cn1cc2c3c1C(=O)C1=C(C3=NCC2)C2(C=C(Br)C(=O)C(Br)=C2)CCN1"
  log10 of IC50: -0.30
